Tested on: NCI-H510 multicellular tumor spheroid growth, % test/control
Assay: Anticancer human tumor NCI-H510 cell line growth inhibition [Asc];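 also: spheroids exposed to agents for 7 days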;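 as to viability, T/C: 100% = DMSO vehicle control wells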
Settings: second compound 10 µM; first compound 3.16 µM; stronger effect = lower value
Source text: Multicellular complex tumor spheroid response to apoptosis pathway targeting inhibitors Alrizomadlin, Pelcitoclax, and Dasminapant in combination with a variety of drugs and investigational agents in selected tumor cell lines […] Compounds. […] If the clinical Cmax for an agent had not been determined, the highest concentration tested was 10 microM. […]
Observed Property: viability, T/C (%)
I only need the number, in %, no unit after it.

Request: Request the reported viability, T/C associated with C=CC(=O)N1CCN(c2nc(=O)n(-c3c(C)ccnc3C(C)C)c3nc(-c4c(O)cccc4F)c(F)cc23)C(C)C1 (stereo unspecified) + Cc1c(S(C)(=O)=O)c(-c2cc(F)cc(N3CCN(c4ccc(NS(=O)(=O)c5ccc(NC(CCN6CCC(C(=O)OCCCP(=O)(O)O)CC6)CSc6ccccc6)c(S(=O)(=O)C(F)(F)F)c5)cc4)CC3)c2)c(-c2ccc(Cl)cc2)n1C(C)C
Result: 89.4

====

Test system: NCI-H510 multicellular tumor spheroid growth, % test/control
Test: Anticancer human tumor NCI-H510 cell line growth inhibition [Asc];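 also: spheroids exposed to agents for 7 days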
Conditions: curve of first compound; second compound 0.1 µM
Give measured IC50 for each item. Keep answers brief.

Request: Kindly state the measured IC50 obtained for CCN1C(C(=O)NC23CCC(C(=O)O)(CC2)CC3)C(c2cccc(Cl)c2F)C2(C(=O)Nc3cc(Cl)ccc32)C12CCCCC2 (stereo not drawn) + Cc1c(S(C)(=O)=O)c(-c2cc(F)cc(N3CCN(c4ccc(NS(=O)(=O)c5ccc(NC(CCN6CCC(C(=O)OCCCP(=O)(O)O)CC6)CSc6ccccc6)c(S(=O)(=O)C(F)(F)F)c5)cc4)CC3)c2)c(-c2ccc(Cl)cc2)n1C(C)C with NCI-H510 multicellular tumor spheroid growth, % test/control.
Result: > 3 µM

Request: Subsequent entry: C#Cc1c(F)ccc2cc(O)cc(-c3ncc4c(N5CC6CCC(C5)N6)nc(OCC56CCCN5CC(F)C6)nc4c3F)c12 (stereo not drawn) + Cc1c(S(C)(=O)=O)c(-c2cc(F)cc(N3CCN(c4ccc(NS(=O)(=O)c5ccc(NC(CCN6CCC(C(=O)OCCCP(=O)(O)O)CC6)CSc6ccccc6)c(S(=O)(=O)C(F)(F)F)c5)cc4)CC3)c2)c(-c2ccc(Cl)cc2)n1C(C)C
Result: > 10 µM

Request: Also check Cn1ncnc1[C@H]1c2n[nH]c(=O)c3cc(F)cc(c23)N[C@@H]1c1ccc(F)cc1 + Cc1c(S(C)(=O)=O)c(-c2cc(F)cc(N3CCN(c4ccc(NS(=O)(=O)c5ccc(NC(CCN6CCC(C(=O)OCCCP(=O)(O)O)CC6)CSc6ccccc6)c(S(=O)(=O)C(F)(F)F)c5)cc4)CC3)c2)c(-c2ccc(Cl)cc2)n1C(C)C
Result: 0.00846 µM

====

Tested on: NCI-H510 multicellular tumor spheroid growth, % test/control
Test: Anticancer human tumor NCI-H510 cell line growth inhibition [Asc];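 also: spheroids exposed to agents for 7 days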;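 as to viability, T/C: 100% = DMSO vehicle control wells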
Conditions: second compound 0.1 µM; first compound 0.01 µM; stronger effect = lower value
Answer each item with its documented viability, T/C.
Provide the reading as a plain figure in %.

Request: Value wanted: viability, T/C (NCI-H510 multicellular tumor spheroid growth, % test/control) of entry CNC(C)C(=O)NC1CN(S(=O)(=O)c2cccc(S(=O)(=O)N3CCC4CCC(C(=O)NC(c5ccccc5)c5ccccc5)N4C(=O)C(NC(=O)C(C)NC)C3)c2)CCC2CCC(C(=O)NC(c3ccccc3)c3ccccc3)N2C1=O (stereo not drawn) + Cc1c(S(C)(=O)=O)c(-c2cc(F)cc(N3CCN(c4ccc(NS(=O)(=O)c5ccc(NC(CCN6CCC(C(=O)OCCCP(=O)(O)O)CC6)CSc6ccccc6)c(S(=O)(=O)C(F)(F)F)c5)cc4)CC3)c2)c(-c2ccc(Cl)cc2)n1C(C)C
Result: 122

Request: Repeat for the following compound: NC1CCC(NC2CC2c2ccccc2)CC1 (stereo not drawn) + Cc1c(S(C)(=O)=O)c(-c2cc(F)cc(N3CCN(c4ccc(NS(=O)(=O)c5ccc(NC(CCN6CCC(C(=O)OCCCP(=O)(O)O)CC6)CSc6ccccc6)c(S(=O)(=O)C(F)(F)F)c5)cc4)CC3)c2)c(-c2ccc(Cl)cc2)n1C(C)C
Result: 87.7

Request: Check CCN1CCN(Cc2ccc(Nc3ncc(F)c(-c4cc(F)c5nc(C)n(C(C)C)c5c4)n3)nc2)CC1 + CNC(C)C(=O)NC1CN(S(=O)(=O)c2cccc(S(=O)(=O)N3CCC4CCC(C(=O)NC(c5ccccc5)c5ccccc5)N4C(=O)C(NC(=O)C(C)NC)C3)c2)CCC2CCC(C(=O)NC(c3ccccc3)c3ccccc3)N2C1=O too.
Result: 95.5

====

System: NCI-H510 multicellular tumor spheroid growth, % test/control
Assay: Anticancer human tumor NCI-H510 cell line growth inhibition [Asc];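 also: spheroids exposed to agents for 7 days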;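 as to viability, T/C: 100% = DMSO vehicle control wells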
Settings: second compound 3 µM; first compound 10 µM; stronger effect = lower value
Excerpt: Multicellular complex tumor spheroid response to apoptosis pathway targeting inhibitors Alrizomadlin, Pelcitoclax, and Dasminapant in combination with a variety of drugs and investigational agents in selected tumor cell lines […] Compounds. […] If the clinical Cmax for an agent had not been determined, the highest concentration tested was 10 microM. […]
Observed Property: viability, T/C (%)
Dear colleague, please return just the value in %, with no unit written.

Request: Field request: viability, T/C | item: C#Cc1c(F)ccc2cc(O)cc(-c3ncc4c(N5CC6CCC(C5)N6)nc(OCC56CCCN5CC(F)C6)nc4c3F)c12 (centres undefined) + CCN1C(C(=O)NC23CCC(C(=O)O)(CC2)CC3)C(c2cccc(Cl)c2F)C2(C(=O)Nc3cc(Cl)ccc32)C12CCCCC2
Result: 102

Request: Would you mind doing O=C(c1cc(Cc2n[nH]c(=O)c3ccccc23)ccc1F)N1CCN(C(=O)C2CC2)CC1 + CCN1C(C(=O)NC23CCC(C(=O)O)(CC2)CC3)C(c2cccc(Cl)c2F)C2(C(=O)Nc3cc(Cl)ccc32)C12CCCCC2 as well?
Result: 22.3

Request: Then this compound: C=C(F)C(=O)N1CCN(c2nc(OCC3CCCN3C)nc3c2CCN(c2cccc4cccc(Cl)c24)C3)CC1CC#N (centres undefined) + CCN1C(C(=O)NC23CCC(C(=O)O)(CC2)CC3)C(c2cccc(Cl)c2F)C2(C(=O)Nc3cc(Cl)ccc32)C12CCCCC2
Result: 0.18

Request: Same for C=CC(=O)N1CCN(c2nc(=O)n(-c3c(C)ccnc3C(C)C)c3nc(-c4c(O)cccc4F)c(F)cc23)C(C)C1 (centres undefined) + CCN1C(C(=O)NC23CCC(C(=O)O)(CC2)CC3)C(c2cccc(Cl)c2F)C2(C(=O)Nc3cc(Cl)ccc32)C12CCCCC2
Result: 79.2

====

Tested on: NCI-H510 multicellular tumor spheroid growth, % test/control
Experiment: Anticancer human tumor NCI-H510 cell line growth inhibition [Asc];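 also: spheroids exposed to agents for 7 days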;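 as to viability, T/C: 100% = DMSO vehicle control wells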
Details: second compound 0.316 µM; first compound 1 µM; stronger effect = lower value
Rule: viability, T/C below 90% gives 1.0. Equal to or above 90% gives 0.0.

Request: Lab note: viability, T/C threshold 90%. Does this molecule come in strictly under it? COc1c(OCCCN2CCOCC2)ccc2c3n(c(=NC(=O)c4cnc(N)nc4)nc12)CCN3 + Cc1c(S(C)(=O)=O)c(-c2cc(F)cc(N3CCN(c4ccc(NS(=O)(=O)c5ccc(NC(CCN6CCC(C(=O)OCCCP(=O)(O)O)CC6)CSc6ccccc6)c(S(=O)(=O)C(F)(F)F)c5)cc4)CC3)c2)c(-c2ccc(Cl)cc2)n1C(C)C
Result: 1.0

Request: Follow-up entry: C=CC(=O)N1CCN(c2nc(=O)n(-c3c(C)ccnc3C(C)C)c3nc(-c4c(O)cccc4F)c(F)cc23)C(C)C1 (configuration not stated) + CNC(C)C(=O)NC1CN(S(=O)(=O)c2cccc(S(=O)(=O)N3CCC4CCC(C(=O)NC(c5ccccc5)c5ccccc5)N4C(=O)C(NC(=O)C(C)NC)C3)c2)CCC2CCC(C(=O)NC(c3ccccc3)c3ccccc3)N2C1=O
Result: 0.0

Request: Queued: O=C(c1ccc(F)c(F)c1Nc1ccc(I)cc1F)N1CC(O)([C@@H]2CCCCN2)C1 + CNC(C)C(=O)NC1CN(S(=O)(=O)c2cccc(S(=O)(=O)N3CCC4CCC(C(=O)NC(c5ccccc5)c5ccccc5)N4C(=O)C(NC(=O)C(C)NC)C3)c2)CCC2CCC(C(=O)NC(c3ccccc3)c3ccccc3)N2C1=O
Result: 0.0

Request: How about O=C(c1cc(Cc2n[nH]c(=O)c3ccccc23)ccc1F)N1CCN(C(=O)C2CC2)CC1 + Cc1c(S(C)(=O)=O)c(-c2cc(F)cc(N3CCN(c4ccc(NS(=O)(=O)c5ccc(NC(CCN6CCC(C(=O)OCCCP(=O)(O)O)CC6)CSc6ccccc6)c(S(=O)(=O)C(F)(F)F)c5)cc4)CC3)c2)c(-c2ccc(Cl)cc2)n1C(C)C ?
Result: 1.0

Request: Also COc1c(OCCCN2CCOCC2)ccc2c3n(c(=NC(=O)c4cnc(N)nc4)nc12)CCN3 + CNC(C)C(=O)NC1CN(S(=O)(=O)c2cccc(S(=O)(=O)N3CCC4CCC(C(=O)NC(c5ccccc5)c5ccccc5)N4C(=O)C(NC(=O)C(C)NC)C3)c2)CCC2CCC(C(=O)NC(c3ccccc3)c3ccccc3)N2C1=O , if possible.
Result: 0.0

Request: Now try C=CC(=O)N1CCN(c2nc(=O)n(-c3c(C)ccnc3C(C)C)c3nc(-c4c(O)cccc4F)c(F)cc23)C(C)C1 (configuration not stated) + Cc1c(S(C)(=O)=O)c(-c2cc(F)cc(N3CCN(c4ccc(NS(=O)(=O)c5ccc(NC(CCN6CCC(C(=O)OCCCP(=O)(O)O)CC6)CSc6ccccc6)c(S(=O)(=O)C(F)(F)F)c5)cc4)CC3)c2)c(-c2ccc(Cl)cc2)n1C(C)C .
Result: 0.0
